Target: T1, CRBN, Q96SW2;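 note: pooled lentiviral library of zinc finger degron-EGFP fusions in mCherry-positive Jurkat cells, FACS-sorted after compound exposure, with degron abundance counted by next-generation sequencing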
T1 chain: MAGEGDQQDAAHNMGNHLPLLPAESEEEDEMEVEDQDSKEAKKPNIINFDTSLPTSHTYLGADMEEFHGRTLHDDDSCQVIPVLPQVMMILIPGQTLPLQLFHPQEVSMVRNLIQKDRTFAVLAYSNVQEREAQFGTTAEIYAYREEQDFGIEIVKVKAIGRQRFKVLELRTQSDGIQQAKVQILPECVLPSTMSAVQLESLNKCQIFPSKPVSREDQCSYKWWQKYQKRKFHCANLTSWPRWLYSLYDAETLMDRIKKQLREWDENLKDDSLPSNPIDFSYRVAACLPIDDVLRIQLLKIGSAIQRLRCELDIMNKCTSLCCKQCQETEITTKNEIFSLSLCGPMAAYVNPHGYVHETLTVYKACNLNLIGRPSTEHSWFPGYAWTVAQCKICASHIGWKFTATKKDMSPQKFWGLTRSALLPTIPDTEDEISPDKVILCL
Test: log2 fold change of degron read counts, EGFP-low vs EGFP+ sorted cells (limma voom), compound-induced degradation; higher = more compound-induced degradation of the degron-EGFP fusion; degrons are variants of IKZF1/3 zinc finger 2; compound dose not given here
Settings: Jurkat; 18 h; compound: compound 19 (5-tert-butyl-thalidomide)
Whole data set: some 8,300 sequences, median “log2 fold change of degron read counts, EGFP-low vs EGFP+ sorted cells (limma voom), compound-induced degradation” near -1.1, cut for the highest 2% near 3.2. For the sample, the highest values were picked, then their nearest neighbours and some sequences at random.
Binary classification by log2 fold change of degron read counts, with -0.9 as an inclusive lower bound for Criterion met; all other cases are Criterion not met.

# example entries with known answers
LLCEICGFVCTQKGNLLRHIKL [46L_47L_49E_50I_52G_53F_54V_55C_67L_, Q9UKT9] :: Criterion not met
FDCSVCGHGFTQKGNLLRHIKL [46F_47D_49S_50V_52G_53H_54G_55F_67L_, Q9UKT9] :: Criterion not met

Could you verify whether the entry LMCPICGFICTQKGNLLRHIKL [46L_47M_49P_50I_52G_53F_54I_55C_67L_, Q9UKT9] shows log2 fold change of degron read counts of no less than -0.9?
Criterion met

Hi team, for FMCNVCGAAFTQKGNLLRHIKL [46F_47M_49N_50V_52G_53A_54A_55F_67L_, Q9UKT9] , is the recorded log2 fold change of degron read counts at or above -0.9?
Criterion not met

Does the sequence LKCEICGFVCTQKGNLLRHIKL [46L_47K_49E_50I_52G_53F_54V_55C_67L_, Q9UKT9] have recorded log2 fold change of degron read counts that is -0.9 or more?
Criterion not met
